All values here come from the supplement of paper PMC7877785.

Items are presented alongside their recorded self-splicing fitness (ln).
Experiment: self-splicing fitness, log relative to wild type (ln ratio); higher = more splicing; Tetrahymena group I intron in knt gene, E. coli kanamycin selection, DiMSum; sequences stand for … in CUCUCU…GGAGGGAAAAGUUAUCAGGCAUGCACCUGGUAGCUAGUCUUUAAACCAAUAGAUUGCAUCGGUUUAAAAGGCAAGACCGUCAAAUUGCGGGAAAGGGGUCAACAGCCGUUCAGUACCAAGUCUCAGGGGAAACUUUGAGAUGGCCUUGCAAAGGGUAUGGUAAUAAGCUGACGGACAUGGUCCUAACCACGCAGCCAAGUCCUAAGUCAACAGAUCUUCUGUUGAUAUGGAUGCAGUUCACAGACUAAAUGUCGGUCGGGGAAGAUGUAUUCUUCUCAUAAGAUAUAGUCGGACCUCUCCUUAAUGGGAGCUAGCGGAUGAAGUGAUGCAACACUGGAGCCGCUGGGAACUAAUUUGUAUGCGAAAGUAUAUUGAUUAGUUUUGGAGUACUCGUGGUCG;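 further: selection with 25 µg/mL kanamycin versus none on LB agar overnight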
Details: 37 °C
Please reply with the number alone, leaving off any unit.

Chain Sequence	Reported Result
AUUAAGCAAUAUUACGCCAG	-1.51
AAAGAGCAAUAUUACGGUAU	-2.28
UGAGAGCAAUAUUACGUAUC	-0.408
ACUGAGCAAUAUUACGGAAA	-2.61
AAGGAGCAAUAUUACGCUAA	-1.51
AUUGAGCAAUAUUACGAUCU	-0.471
UACUAGCAAUAUUACGCGCA	0.207
GACUAGCAAUAUUACGCAUU	-1.63
CUAAAGCAAUAUUACGCGAC	-0.124
GGAGAGCAAUAUUACGGAGU	-2.68

Enquiry: State its self-splicing fitness (ln) for this sequence: GCUUAGCAAUAUUACGGCAG
Return: -2.63

Enquiry: For the sequence CGACAGCAAUAUUACGCGCC , report self-splicing fitness (ln).
Return: -0.187

Enquiry: Identify measured self-splicing fitness (ln) associated with UCCAAGCAAUAUUACGGGGA
Return: -1.27

---

Assay: self-splicing fitness, log relative to wild type (ln ratio); higher = more splicing; Tetrahymena group I intron in knt gene, E. coli kanamycin selection, DiMSum; sequences stand for … in CUCUCU…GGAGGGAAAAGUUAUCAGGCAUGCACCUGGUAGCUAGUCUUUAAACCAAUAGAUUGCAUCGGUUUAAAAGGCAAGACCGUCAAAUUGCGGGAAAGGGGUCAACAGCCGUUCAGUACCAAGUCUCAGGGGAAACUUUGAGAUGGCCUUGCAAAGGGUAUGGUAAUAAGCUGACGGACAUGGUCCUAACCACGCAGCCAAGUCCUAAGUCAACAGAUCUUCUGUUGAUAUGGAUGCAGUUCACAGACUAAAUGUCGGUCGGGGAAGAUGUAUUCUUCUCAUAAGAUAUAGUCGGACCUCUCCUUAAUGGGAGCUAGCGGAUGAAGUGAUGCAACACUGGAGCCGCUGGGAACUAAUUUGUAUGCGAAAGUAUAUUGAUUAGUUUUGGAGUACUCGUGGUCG
Details: 37 °C
Measured Endpoint: self-splicing fitness (ln)

Chain Sequence	self-splicing fitness (ln)
AUGGAGCAAUAUUACGAUUU	-1.6
UACUAGCAAUAUUACGGAUC	-1.7
CUUCAGCAAUAUUACGGCUG	-2.65

Enquiry: Tell us which self-splicing fitness (ln) value is on record for GCUCAGCAAUAUUACGGUUU
Return: 0.228

Enquiry: Tell us which self-splicing fitness (ln) value is on record for GGACAGCAAUAUUACGACAG
Return: -2.33

Enquiry: Please look at this sequence and report its self-splicing fitness (ln): CUCCAGCAAUAUUACGAUUG
Return: -0.899

---

Assay: self-splicing fitness, log relative to wild type (ln ratio); higher = more splicing; Tetrahymena group I intron in knt gene, E. coli kanamycin selection, DiMSum; sequences stand for … in CUCUCU…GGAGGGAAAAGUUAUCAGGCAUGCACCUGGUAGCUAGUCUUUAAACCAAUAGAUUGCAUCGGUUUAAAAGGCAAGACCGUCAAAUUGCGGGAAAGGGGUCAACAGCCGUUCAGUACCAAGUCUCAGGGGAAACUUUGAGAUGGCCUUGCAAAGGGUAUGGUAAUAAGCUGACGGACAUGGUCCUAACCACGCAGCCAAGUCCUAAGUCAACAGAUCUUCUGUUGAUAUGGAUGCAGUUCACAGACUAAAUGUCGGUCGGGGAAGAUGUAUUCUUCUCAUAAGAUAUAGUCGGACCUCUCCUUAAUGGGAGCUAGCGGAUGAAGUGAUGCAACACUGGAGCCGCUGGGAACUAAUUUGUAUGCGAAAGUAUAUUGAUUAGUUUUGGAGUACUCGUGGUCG
Settings: 37 °C
Measured Endpoint: self-splicing fitness (ln)
Form: value (number only, do not type unit).

Past entries and their recorded results:
Chain Sequence	Reported Result
UAAGAGCAAUAUUACGAGCG	-1.54
CGACAGCAAUAUUACGGCAG	0.289
ACGAAGCAAUAUUACGCCUA	-1.1

Enquiry: Fill in reported self-splicing fitness (ln) for this entry: UAGCAGCAAUAUUACGCAGC
Return: -1.75

---

Consider the following sequences and their measured self-splicing fitness (ln) readings.
Experiment: self-splicing fitness, log relative to wild type (ln ratio); higher = more splicing; Tetrahymena group I intron in knt gene, E. coli kanamycin selection, DiMSum; sequences stand for … in CUCUCU…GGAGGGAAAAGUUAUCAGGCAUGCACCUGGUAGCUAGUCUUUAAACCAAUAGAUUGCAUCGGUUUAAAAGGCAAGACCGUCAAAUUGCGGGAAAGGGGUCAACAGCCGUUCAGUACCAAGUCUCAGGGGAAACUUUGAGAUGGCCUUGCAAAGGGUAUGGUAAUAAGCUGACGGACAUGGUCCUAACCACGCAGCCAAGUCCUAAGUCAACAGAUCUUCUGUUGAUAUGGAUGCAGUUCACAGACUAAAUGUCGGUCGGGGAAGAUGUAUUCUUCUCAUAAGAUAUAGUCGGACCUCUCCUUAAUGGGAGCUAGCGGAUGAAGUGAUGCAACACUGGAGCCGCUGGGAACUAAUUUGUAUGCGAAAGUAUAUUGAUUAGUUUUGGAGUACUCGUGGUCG
Details: 37 °C
A bare number is all that is needed in reply.

Chain Sequence	self-splicing fitness (ln)
CGACAGCAAUAUUACGAUGG	-0.172
CUAGAGCAAUAUUACGAUAC	-2.25
GGGAAGCAAUAUUACGCUAA	-0.363
UACGAGCAAUAUUACGCAUC	-1.96
UAAGAGCAAUAUUACGUCGG	-2.25
CGUAAGCAAUAUUACGCAUC	-2.03

Enquiry: Note down self-splicing fitness (ln) recorded for ACUCAGCAAUAUUACGAUCU
Return: 0.407

Enquiry: Look up self-splicing fitness (ln) of ACAUAGCAAUAUUACGGCCG and report it.
Return: 0.385

---

Experiment: self-splicing fitness, log relative to wild type (ln ratio); higher = more splicing; Tetrahymena group I intron in knt gene, E. coli kanamycin selection, DiMSum; sequences stand for … in CUCUCU…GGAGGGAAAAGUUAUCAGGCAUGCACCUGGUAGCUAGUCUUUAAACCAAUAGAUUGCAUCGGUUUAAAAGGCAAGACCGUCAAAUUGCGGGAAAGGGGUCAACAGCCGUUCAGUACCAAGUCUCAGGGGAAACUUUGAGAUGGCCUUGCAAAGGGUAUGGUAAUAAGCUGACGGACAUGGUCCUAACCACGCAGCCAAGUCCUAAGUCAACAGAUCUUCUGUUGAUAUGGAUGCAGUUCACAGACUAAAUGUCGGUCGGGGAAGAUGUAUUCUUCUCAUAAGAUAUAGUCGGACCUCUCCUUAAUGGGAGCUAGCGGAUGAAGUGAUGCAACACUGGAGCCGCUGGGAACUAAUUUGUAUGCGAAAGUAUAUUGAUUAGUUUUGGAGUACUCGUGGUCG
Conditions: 30 °C
Measured Endpoint: self-splicing fitness (ln)
Please reply with the value in numeric form only.

Chain Sequence	self-splicing fitness (ln)
ACGAAGCAAUAUUACGGCCC	-1.25
CUAAAGCAAUAUUACGAGGC	-3.6
CGAGAGCAAUAUUACGUUGA	-2.79
GUCUAGCAAUAUUACGGGUU	-1.92
AUCUAGCAAUAUUACGAUCA	-1.92

Enquiry: Output measured self-splicing fitness (ln) for this item: AAACAGCAAUAUUACGAAUA
Return: -2.67

Enquiry: Annotate the sequence CCCUAGCAAUAUUACGGUGA with its measured self-splicing fitness (ln).
Return: -2.53

Enquiry: Consider the sequence GAUCAGCAAUAUUACGUAUU . State its measured self-splicing fitness (ln).
Return: -2.69

Enquiry: Supply reported self-splicing fitness (ln) belonging to this sequence: AGGGAGCAAUAUUACGCUGC
Return: -3.96

Enquiry: Specify self-splicing fitness (ln) for GAUAAGCAAUAUUACGUAUA and stop.
Return: -1.81

Enquiry: Please report the measured self-splicing fitness (ln) for CCAGAGCAAUAUUACGUGGG
Return: -3.73

Enquiry: Answer with reported self-splicing fitness (ln) of AAGCAGCAAUAUUACGCCGG
Return: -1.52

Enquiry: Give the value of self-splicing fitness (ln) reported for the following: AACAAGCAAUAUUACGUGGC
Return: -3.61

Enquiry: Return self-splicing fitness (ln) for the following sequence: CCAGAGCAAUAUUACGCGUA
Return: -1.99

Enquiry: Please give measured self-splicing fitness (ln) of the following entry: GUGUAGCAAUAUUACGUGAA
Return: -1.94

Enquiry: Complete the entry with self-splicing fitness (ln) for CGGUAGCAAUAUUACGAAAA
Return: -2.62
